- measurement_target: pooled human IgG
measure: Enzyme Activity Endpoint Assay (purified): Fab'2 (ng/µL)

- protein: "PRT-114 (protein) MRNATEAYNEETPHQITSVWTKGVTPPTPEQFRYNNEDVIHAPYLANQGWYDITKTFNGKDNLLCGAATAGNMLHWWFDQNKTEIEAYLSKHPEKQKIIFNNQELFDLKAAIDTKDSQTNSQLFNYFREKAFPNLSARQLGVMPDLVLDMFINGYYLNVTKTQSTDVNRPYQDKDKRGGIFDAVFTRGDQTKLLTARHDLKNKTLNEISTLIKQELTEGRALALSHTYANVSISHVINLWGADFNAEGNLEAIYVTDSDANASIGMKKYFVGVNAAGHVAISAKKIEGENIGAQVLGLFTLSSGKDIWQKLS"
  readout_value: 361
